Target: T1, 4H3844-AA
T1 chain: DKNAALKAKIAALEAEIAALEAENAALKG
Assay: two-hybrid library CCmax;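 also: natural log of median RNA to DNA barcode read ratio; higher means stronger binding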
Conditions: mean of both orientations
Hi! Just check whether interaction score is below 0.1. Below gives Criterion met, equal or above gives Criterion not met.

BINDER: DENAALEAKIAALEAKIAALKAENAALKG [4H1324-AA]
CLASS_NAME: Criterion not met

Is interaction score of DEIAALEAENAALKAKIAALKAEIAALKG [4H234-AA] strictly below 0.1?
Criterion met

Here is the next binder: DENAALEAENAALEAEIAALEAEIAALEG [4H1153-AA]
Criterion met

Here is the next binder: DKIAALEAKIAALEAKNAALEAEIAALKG [4H2354-AA]
Criterion met

Here is the next binder: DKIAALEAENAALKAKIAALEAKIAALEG [4H2277-AA]
Criterion met

Here is the next binder: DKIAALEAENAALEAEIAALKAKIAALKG [4H2190-AA]
Criterion not met

Here is the next binder: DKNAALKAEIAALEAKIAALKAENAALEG [4H3627-AA]
Criterion not met
